- Test system: MDA-MB-435 melanoma
- method description: NCI-60 one-dose screen, 48 h (100 = growth as untreated, 0 = no growth, -100 = all killed)
- run parameters: 10 µM unless noted
About 83,000 compounds went through this panel and 20% of them were active in at least one assay; those are over-represented in the sample as a whole.
attribute measured: growth (%)
Entry rule: numbers only, all in %.

// worked examples, growth included
[
  {
    "molecule": "CCC(=O)c1cc(C(=O)OC)c2ccc3c4ccccc4ccc3n12",
    "growth (%)": 93.6
  },
  {
    "molecule": "Nc1nn2c(-c3cc4cc(Br)ccc4oc3=O)ccnc2c1N=Nc1ccc(Br)cc1",
    "growth (%)": 69.5
  },
  {
    "molecule": "Cn1cc(Nc2ncnc(-c3ccc(N4CCCC4)c(C#N)c3)n2)cn1",
    "growth (%)": 8.16
  }
]

// growth value for "Cc1ccc(Cl)cc1NC(=O)Nc1nc2ccc([N+](=O)[O-])cc2s1" : -18.2

// growth value for Fc1cccc(CNc2nc(SCCN3CCOCC3)nc3c2cnn3CC(Cl)c2ccc(Br)cc2)c1 (configuration not stated) : 10.6

// growth value for "c1n[nH]cc1-c1nc2ccc3cn[nH]c3c2c2c1CCCC2" : 94.8

// growth value for "O=C(NC(=S)N1CCN(c2ncnc3c2cnn3-c2ccccc2)CC1)c1ccc(F)cc1" : 77.2

// growth value for "CN(C)c1nc(NCCNS(=O)(=O)c2ccc(C(=O)/C=C/c3ccc(Cl)cc3)cc2)nc(N2CCOCC2)n1" : -53.6

// growth value for "CC(C)(C)OC(=O)N1C/C(=C\c2ccc(F)cc2)C(=O)/C(=C/c2ccc(F)cc2)C1" : -82.6

// growth value for CCOc1ccccc1[C@H]1C(C(=O)c2ccc(Cl)cc2)C2(N[C@@H]1c1ccccc1)C(=O)Nc1ccc(Cl)cc12 (some centres not stated) : 24.1

// growth value for "O=C(CSc1nc2sc3c(c2c(=O)n1-c1ccc(Cl)cc1)CCCC3)N/N=C/C=C/c1ccccc1" : -50.1

// growth value for "Cc1ccc(N=Nc2c(N)nn3c(-c4cc5cc(Br)ccc5oc4=O)ccnc23)cc1" : 113

// growth value for "COC(=O)c1c(C(=O)OC)c2ccc3c4ccccc4ccc3n2c1C(=O)OC" : 98.7
